Origin of the recorded values: ChEMBL document CHEMBL5604061

Target: NS3 (West Nile virus)
Sequence (K4FQI5 whole entry): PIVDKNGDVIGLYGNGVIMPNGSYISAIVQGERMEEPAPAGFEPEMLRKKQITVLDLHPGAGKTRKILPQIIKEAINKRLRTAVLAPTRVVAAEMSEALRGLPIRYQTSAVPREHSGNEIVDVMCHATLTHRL
Assay: Functional biochemical assay to identify treatments for viral infectious disease that targets West Nile NS2B-NS3 protease. Utilizing a direct enzyme activity measurement method, reading the fluorescence intensity is used to characterize the relative potency of inhibitors as IC50.
pIC50: −log10 of the molar value.
pIC50 values by entry

{"columns": ["Smiles Repr", "Result Operator", "pIC50"],
 "data": [
  ["N=C(N)Nc1ccc(NC(=O)Oc2ccccc2)cc1", "<", 4.00],
  ["COc1cc(Cc2c(-c3ccc(F)cc3)noc2C)nc(N2CCNCC2)n1", "=", 4.17],
  ["CCOCC1(c2nc3c(C(=O)Nc4ccc5c(c4)CNC5)cc(Cl)cc3[nH]2)CC1", "<", 4.00],
  ["N#C[C@H](Nc1ccc2c(c1)CNC2)c1cc(Cl)cc(C2CC2)c1", "=", 4.23],
  ["O=C(Nc1ccc2c(c1)CNC2)c1cc(F)cc2[nH]c(-c3cccc(F)c3)nc12", "=", 5.14],
  ["O=C(Nc1ccc2c(c1)CNC2)c1cc(Cl)cc2c1NCCC2", "<", 4.00],
  ["COC(=O)c1cc2c(cc1NC(=O)c1cc(F)cc3[nH]ncc13)CNC2", "=", 6.00],
  ["CNC(=O)[C@H](Nc1ccc2c(c1)CNC2)c1cc(Cl)cc2c1OCC2", "=", 5.42],
  ["CNC(=O)[C@H](Nc1cc(CN)cc(C(=O)O)c1)c1cc(Cl)cc(C2CC2)c1", "=", 5.83],
  ["CC(C)(C)c1cc(Br)cc(C(=O)Nc2ccc3c(c2)CNC3)c1", "=", 4.05],
  ["O=C(Nc1ccc2c(c1)CNC2)c1cc(Cl)cc2nn(C3COC3)cc12", "=", 4.37],
  ["O=C(Nc1ccc2c(c1)CNC2)c1cc(Cl)cc2ccncc12", "=", 5.01],
  ["Cn1nccc1-c1cc(NC(=O)c2cc(F)cc3[nH]ncc23)cc2c1CNC2", "=", 5.84],
  ["O=C(Nc1cc2c(c(-c3c[nH]c(=O)c(F)c3)c1)CNC2)c1cc(F)cc2[nH]ncc12", "=", 6.18],
  ["COCCCNC(=O)[C@H](Nc1ccc2c(c1)CNC2)c1cc(Cl)cc(C2CC2)c1", "=", 6.23],
  ["O=C(Nc1ccc2c(c1)CNC2)c1cc(Br)cc2ccccc12", "=", 4.24],
  ["O=C(Nc1ccc2c(c1)CNC2)c1cc(F)cc(-c2cccnc2)c1", "=", 5.57],
  ["N#Cc1cc2c(cc1NC(=O)c1cc(F)cc3[nH]ncc13)CNC2", "=", 6.62],
  ["Cn1c(=O)[nH]c2c(C(=O)Nc3ccc4c(c3)CNC4)cc(Br)cc21", "=", 4.84],
  ["N#Cc1csc2cc(C(=O)Nc3ccc4c(c3)CNC4)ccc12", "=", 4.60],
  ["COc1cc(Br)cc(C(=O)Nc2ccc3c(c2)CNC3)c1", "=", 4.03],
  ["Cn1cc2cc(Cl)cc(C(=O)Nc3ccc4c(c3)CNC4)c2n1", "<", 4.60]
]}
